- System: SNB-75 CNS
- PROTOCOL_NOTES: NCI-60 one-dose screen, 48 h
- SETTINGS: 10 µM unless noted
About 83,000 compounds went through this panel and 20% of them were active in at least one assay; those are over-represented in the sample as a whole. Activity calls are given as the source filed them. Rule for the calls: active = growth percent below 10; inactive = the rest.
Possible outcomes: 1.0 for active, 0.0 for inactive

# COMPOUND, TARGET_OR_SYSTEM, LABEL
data = [
    ("O=c1[nH]c2c3ccncc3cc(-c3cccc(Cl)c3)c2c2cnccc12", "SNB-75 CNS", 1.0),
    ("CC1(C)C(=O)CC[C@]2(C)[C@H]3C(=O)C=C4[C@@H]5C[C@@](C)(C(=O)NCCNCCN)CC[C@]5(C)CC[C@@]4(C)[C@]3(C)CC[C@@H]12", "SNB-75 CNS", 1.0),
    ("N#CC1=C(N)Oc2c(c(N)nn2-c2ccccc2)C1c1ccc(Cl)cc1 (stereo unspecified)", "SNB-75 CNS", 0.0),
    ("O=C1CCCC=CC[C@H]2C=C(Cl)C(=O)C2=CC[C@H](CCCCC(F)(F)F)OC(=O)CCCC=CC[C@H]2C=C(Cl)C(=O)C2=CC[C@H](CCCCC(F)(F)F)OC(=O)CCCC=CC[C@H]2C=C(Cl)C(=O)C2=CC[C@H](CCCCC(F)(F)F)O1", "SNB-75 CNS", 0.0),
    ("N#Cc1cnc2cc(OC[C@@H](O)CO)c(NC(=O)CC3CSSC3)cc2c1Nc1ccc(OCc2cccc(F)c2)c(Cl)c1", "SNB-75 CNS", 1.0),
    ("Cn1c(=O)c2c(ncn2CC(=O)Nc2ccc(S(N)(=O)=O)cc2)n(C)c1=O", "SNB-75 CNS", 0.0),
    ("CCC(=O)c1c(C)[nH]c(C)c1C", "SNB-75 CNS", 0.0),
    ("CC(C)(C)c1ccc(OP(=S)(N/N=C/c2ccccc2O)Oc2ccc(C(C)(C)C)cc2)cc1", "SNB-75 CNS", 0.0),
    ("COc1ccc(-c2nc3ccccn3c2-c2nc3ccc(Cl)cc3[nH]2)cc1", "SNB-75 CNS", 0.0),
    ("COC(=O)[C@]12CC[C@@H](C(C)=O)[C@@H]1[C@H]1CC[C@@H]3[C@@]4(C)C/C(=C/c5cccnc5)C(=O)C(C)(C)[C@@H]4CC[C@@]3(C)[C@]1(C)CC2", "SNB-75 CNS", 0.0),
    ("CCCCC[C@H]1CC=C2C(=O)C=C[C@@H]2CC=CCCCC(=O)O[C@@H](CCCCC)CC=C2C(=O)C=C[C@@H]2CC=CCCCC(=O)O[C@@H](CCCCC)CC=C2C(=O)C=C[C@@H]2CC=CCCCC(=O)O1", "SNB-75 CNS", 0.0),
    ("COc1ccc(NC(=S)N/N=C/c2ccccc2SSCCC(=O)OC[C@H]2O[C@H](O)[C@H](O)[C@@H](O)[C@@H]2O)cc1", "SNB-75 CNS", 0.0),
    ("COc1cc2c3c(c4c5ccccc5[nH]c4c2c(OC)c1OC)C(=O)N(O)C3=O", "SNB-75 CNS", 0.0),
    ("Cc1cc(N(CCNc2ccnc3cc(Cl)ccc23)Cc2ccco2)nc(Cl)n1", "SNB-75 CNS", 1.0),
    ("COc1ccc(-c2nc3ncccn3c2-c2nc3ccc(Br)cc3[nH]2)cc1", "SNB-75 CNS", 0.0),
    ("COc1ccc(/C=C(\\C#N)c2cc3ccccc3n2S(C)(=O)=O)cc1", "SNB-75 CNS", 0.0),
    ("COC(=O)c1cc(=O)nc(N/N=C/c2ccc(C)cc2)s1", "SNB-75 CNS", 0.0),
    ("C=C(C)[C@@H]1CC[C@]2(C(=O)N3CCCNCC3)CC[C@]3(C)[C@H](CC[C@@H]4[C@@]5(C)CCC(=O)C(C)(C)[C@@H]5CC[C@]43C)[C@@H]12", "SNB-75 CNS", 0.0),
    ("CC(CNc1nc(Nc2ccc(Cl)c(Cl)c2)nc(C(Cl)(Cl)Cl)n1)N(C)C (stereo unspecified)", "SNB-75 CNS", 1.0),
    ("CC(C)c1cc(C(=O)O)c(O)c(C(C)C)c1.CC(C)c1cc(C(=O)O)c(O)c(C(C)C)c1.[Mn]", "SNB-75 CNS", 0.0),
    ("Cn1c2c(Cl)c(Cl)ccc2c2c(C#N)c[nH]c(=O)c21", "SNB-75 CNS", 0.0),
    ("CC1(n2nnnc2N2CCCN(c3ncccc3N)CC2)CCC1", "SNB-75 CNS", 0.0),
    ("COc1ccc(-c2c(-c3nc4ccc(N5CCOCC5)cc4[nH]3)[nH]c(C)c2C(C)=O)cc1", "SNB-75 CNS", 1.0),
    ("COc1cnc2c(c1)C(=O)c1c-2n(CCCN2CCN(CCO)CC2)c(=O)c2cc([N+](=O)[O-])ccc12", "SNB-75 CNS", 0.0),
    ("N=c1c(S(=O)(=O)c2ccccc2)cc2c(=O)n3ccccc3nc2n1C1CCCC1", "SNB-75 CNS", 0.0),
    ("O=C1CNCCN1", "SNB-75 CNS", 0.0),
    ("N#CC1=C(N)Oc2ccc3ccccc3c2C1c1ccccc1Cl (stereo unspecified)", "SNB-75 CNS", 1.0),
    ("C=C(C)[C@@H]1CC[C@]2(CN)CC[C@]3(C)[C@H](CC[C@@H]4[C@@]5(C)CCC(=O)NC(C)(C)[C@@H]5CC[C@]43C)[C@@H]12", "SNB-75 CNS", 0.0),
    ("COc1cc2nc(Cl)nc(Nc3cccc(C(=O)/C=C/c4ccc(F)cc4)c3)c2cc1OC", "SNB-75 CNS", 0.0),
    ("COc1cnc2c(c1)C(=O)c1c-2n(CCCNC(C)C)c(=O)c2cc([N+](=O)[O-])ccc12", "SNB-75 CNS", 1.0),
    ("COc1ccc(C2c3ccccc3NC(=O)N2C2CCN(C)CC2)c(OC)c1 (stereo unspecified)", "SNB-75 CNS", 0.0),
]
